quantity.kind: melting point

Sample answers from the record:
# compound, reported.result
measured = [
    ("Cc1ccc(NC(=O)N2CCC3(CC2)Cn2cc([N+](=O)[O-])nc2O3)cc1", "> 300 °C"),
    ("C[C@]1(CN2CCN(C(=O)Nc3ccc(C(F)(F)F)cc3)CC2)Cn2cc([N+](=O)[O-])nc2O1", "150 to 152.5 °C"),
    ("C[C@]1(CN2CCN(N=Cc3cc4cc(Cl)ccc4o3)CC2)Cn2cc([N+](=O)[O-])nc2O1", "213.8 to 215.7 °C"),
]

Exercise: Sample C[C@]1(COC(=O)N(c2ccc(Cl)cc2)c2ccc(Cl)cc2)Cn2cc([N+](=O)[O-])nc2O1 — what was its melting point?
Solution: 200 to 201 °C

Exercise: Can you check CC1(CN2CCN(C(=O)COc3ccccc3)CC2)Cn2cc([N+](=O)[O-])nc2O1 (stereo not drawn) next?
Solution: 158 to 160.6 °C

Exercise: Can you check CNC(C1CCN(c2ccc(C(F)(F)F)cc2)CC1)[C@]1(C)Cn2cc([N+](=O)[O-])nc2O1 (stereo partly drawn) next?
Solution: 131.5 to 133.6 °C

Exercise: Can you check CC(=O)c1ccc(COC(=O)N2CCN(CC3(C)Cn4cc([N+](=O)[O-])nc4O3)CC2)cc1 (stereo not drawn) next?
Solution: 101 to 102 °C

Exercise: Can you check C[C@]1(CN2CCC(N3CCN(c4ccc(OC(F)(F)F)cc4)CC3)CC2)Cn2cc([N+](=O)[O-])nc2O1 next?
Solution: 193 to 194 °C
